# System: BRAF G466V (Homo sapiens, UniProt P15056, G466V)
# Construct: expressed in transfected cells
# Sequence (P15056 whole entry G466V): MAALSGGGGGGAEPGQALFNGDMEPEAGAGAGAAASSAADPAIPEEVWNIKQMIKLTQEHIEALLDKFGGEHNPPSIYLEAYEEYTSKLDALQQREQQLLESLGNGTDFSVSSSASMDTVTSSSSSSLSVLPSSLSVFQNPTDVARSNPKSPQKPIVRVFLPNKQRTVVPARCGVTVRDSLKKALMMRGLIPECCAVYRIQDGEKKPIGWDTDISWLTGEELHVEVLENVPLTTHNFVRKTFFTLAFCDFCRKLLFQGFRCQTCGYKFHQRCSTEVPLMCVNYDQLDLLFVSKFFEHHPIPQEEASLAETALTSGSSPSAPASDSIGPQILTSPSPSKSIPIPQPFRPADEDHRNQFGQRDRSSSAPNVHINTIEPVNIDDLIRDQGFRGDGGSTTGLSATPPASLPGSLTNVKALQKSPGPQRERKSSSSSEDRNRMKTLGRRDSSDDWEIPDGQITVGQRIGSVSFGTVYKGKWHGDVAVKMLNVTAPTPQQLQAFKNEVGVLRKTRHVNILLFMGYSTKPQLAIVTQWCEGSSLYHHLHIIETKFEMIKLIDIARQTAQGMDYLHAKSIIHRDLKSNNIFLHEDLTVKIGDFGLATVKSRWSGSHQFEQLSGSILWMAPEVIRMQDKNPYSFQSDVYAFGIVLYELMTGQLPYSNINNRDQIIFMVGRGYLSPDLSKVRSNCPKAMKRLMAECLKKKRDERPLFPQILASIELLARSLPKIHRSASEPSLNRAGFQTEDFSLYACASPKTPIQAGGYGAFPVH
# Protocol summary: Cellular assay of target protein degradation, T-Rex 293 cells stably transfected with HA-BRAF G466V (HA immunofluorescence, high content imaging)
# Format: cell-based
# Measurement conditions: half maximal degradation, T-Rex 293 HA-BRAF G466V; read-out: BRaf G466V DC50
Test readout: DC50

Past entries and their recorded results:
[
  {
    "Compound": "O=C1CC[C@@H](N2Cc3cc(OC[C@@H](O)CN4CC5(C4)CN(c4ccc(-c6cnc7[nH]cc(C(=O)c8c(F)ccc(NS(=O)(=O)N9CC[C@@H](F)C9)c8F)c7c6)cc4)C5)ccc3C2=O)C(=O)N1 [Compound 166]",
    "Test readout": "DC50",
    "Reported measurement": "1 to 10 nM"
  },
  {
    "Compound": "O=C1CC[C@H](N2Cc3cc(N4CC(CN5CCN(C6(c7ncc(-c8cnc9[nH]cc(C(=O)c%10c(F)ccc(NS(=O)(=O)N%11CC[C@@H](F)C%11)c%10F)c9c8)cn7)CC6)CC5)C4)ccc3C2=O)C(=O)N1 [Compound 202]",
    "Test readout": "DC50",
    "Reported measurement": "1 to 10 nM"
  },
  {
    "Compound": "O=C1CCC(NC(=O)c2ccc(N3CC4(CN(CCc5ccc(-c6cnc7[nH]cc(C(=O)c8c(F)ccc(NS(=O)(=O)N9CC[C@@H](F)C9)c8F)c7c6)cc5)C4)C3)cc2F)C(=O)N1 (stereo partly drawn) [Compound 374]",
    "Test readout": "DC50",
    "Reported measurement": "< 1 nM"
  },
  {
    "Compound": "O=C1CC[C@H](NC(=O)c2ccc(N3CC4(CN(CC5CCN(c6ccc(-c7cnc8[nH]cc(C(=O)c9c(F)ccc(NS(=O)(=O)N%10CC[C@@H](F)C%10)c9F)c8c7)cc6)CC5)C4)C3)cc2F)C(=O)N1 [Compound 31]",
    "Test readout": "DC50",
    "Reported measurement": "< 1 nM"
  },
  {
    "Compound": "COc1cc(N2CC3(CN(CCc4ccc(-c5cnc6[nH]cc(C(=O)c7c(F)ccc(NS(=O)(=O)N8CC[C@@H](F)C8)c7F)c6c5)cc4)C3)C2)ccc1C(=O)NC1CCC(=O)NC1=O (stereo partly drawn) [Compound 362]",
    "Test readout": "DC50",
    "Reported measurement": "1 to 10 nM"
  }
]

-- ask Given the entry O=C1CCC(N2Cc3cc(N4CCC(N5C[C@@H]6C[C@H]5CN(c5ccc(-c7cnc8[nH]cc(C(=O)c9c(F)ccc(NS(=O)(=O)N%10CC[C@@H](F)C%10)c9F)c8c7)cc5)C6)CC4)ccc3C2=O)C(=O)N1 (stereo partly drawn) [Compound 16] , report its measured DC50.
-- reply 1 to 10 nM
